These data points were gathered from patent EP4596537A1.

This section presents compounds with their documented inhibition at 1 µM values.
System: PDHE1α S293
ASSAY_DETAILS: In vitro PDH S293 phosphorylation inhibition (Western blot) in HEK293 cells
Format: cell-based, human
CONDITION_DESCRIPTION: Homo sapiens, 5 hours

Example entries begin here.
• CC(C(=O)NNc1ccccn1)n1cc(-c2cc(F)cc3c2-c2ccccc2C3(O)C(F)(F)F)cn1 (stereo not shown) [Example 8] = ≥ 80%
• CC(C(=O)NNc1ccc(S(C)(=O)=O)cc1)n1cc(-c2cc(F)cc3c2-c2ccccc2C3(O)C(F)(F)F)cn1 (stereo not shown) [Example 22] = ≥ 50%
• COc1cc(-c2cnn(C(C)C(=O)NNc3ccc(C(F)(F)F)cn3)c2)c2c(c1)C(O)(C(F)(F)F)c1ccccc1-2 (stereo not shown) [Example 27] = ≥ 50%

Lab note: next compound to report on.
Q) # query: inhibition at 1 µM | item O=C(NNc1ccc(F)cc1)C(CC1CCCCC1)n1cc(-c2cc(F)cc3c2-c2ccccc2C3(O)C(F)(F)F)cn1 (stereo not shown) [Example 46] | system: PDHE1α S293
A) ≥ 50%

---

Tested on: PDHE1α S293
ASSAY_DETAILS: In vitro PDH S293 phosphorylation inhibition (Western blot) in HEK293 cells
Format: cell-based, human
CONDITION_DESCRIPTION: Homo sapiens, 5 hours
Procedure: HEK293 cells, which are human embryonic kidney cells, were seeded at a density of 2 × 10^6 in a 60 mm dish, and cultured for 24 hours. […] The protein in the supernatant was quantified using BCA technique, and the sample buffer was added to 20 µg of protein and allowed to react at 70°C for 5 minutes. The expression of PDHE1α S232, S293, S300, and total PDHE1α proteins was detected by Western blot, and the resulting PDH S293 phosphorylation inhibition is shown in Table 6. […]
Measured inhibition at 1 µM accompanies every entry in the list below.

• C[C@H](C(=O)NNc1ccc(F)cc1)n1cc(-c2cc(F)cc3c2-c2ccccc2[C@]3(O)C(F)(F)F)cn1 = ≥ 50%
• COc1cc(-c2cnn(C(C)C(=O)NNc3ccc(S(C)(=O)=O)cc3)c2)c2c(c1)C(O)(C(F)(F)F)c1ccccc1-2 (stereo not drawn) = ≥ 50%
• COc1cc(-c2cnn(C(C)C(=O)NNc3ccc(C(=O)OC(C)(C)C)cn3)c2)c2c(c1)C(O)(C(F)(F)F)c1ccccc1-2 (stereo not drawn) = ≥ 50%
• CC(C(=O)NNc1ccccc1)n1cc(-c2cc(F)cc3c2-c2ccccc2C3(O)C(F)(F)F)cn1 (stereo not drawn) = ≥ 80%
• CC(C(=O)NNc1cc(=O)n(C)c2ccccc12)n1cc(-c2cc(F)cc3c2-c2ccccc2C3(O)C(F)(F)F)cn1 (stereo not drawn) = ≥ 50%

Attention now turns to another entry.
Q) Please give the measured inhibition at 1 µM for this compound: CC(C(=O)NN1CCCCCC1)n1cc(-c2cc(F)cc3c2-c2ccccc2C3(O)C(F)(F)F)cn1 (stereo not drawn)
A) ≥ 50%

---

Test system: PDHE1α S293
ASSAY_DETAILS: In vitro PDH S293 phosphorylation inhibition (Western blot) in HEK293 cells
Type: cell-based, human
CONDITION_DESCRIPTION: Homo sapiens, 5 hours
# reported inhibition at 1 µM; entries follow

Some compounds with known inhibition at 1 µM results, for comparison:
* CC(C(=O)NN1CCCCC1)n1cc(-c2cc(F)cc3c2-c2ccccc2C3(O)C(F)(F)F)cn1 (stereo not shown) [Example 53] | ≥ 50%
* O=C(Cn1cc(-c2cc(F)cc3c2-c2ccccc2C3(O)C(F)(F)F)cn1)NNc1ccccn1 (stereo not shown) [Example 18] | ≥ 80%

Q) Find the measured inhibition at 1 µM: item O=C(Cn1cc(-c2cc(F)cc3c2-c2ccccc2C3(O)C(F)(F)F)cn1)NNc1ccc(F)cc1 (stereo not shown) [Example 21] , target or system PDHE1α S293.
A) ≥ 50%

Q) Checklist item: inhibition at 1 µM tested on PDHE1α S293, entry O=C(Cn1cc(-c2cc(F)cc3c2-c2ccccc2C3(O)C(F)(F)F)cn1)NNc1ccc(C(=O)O)cn1 (stereo not shown) [Example 20] , value?
A) ≥ 50%

Q) Any idea what inhibition at 1 µM came out for CC(C(=O)NNc1ccncc1)n1cc(-c2cc(F)cc3c2-c2ccccc2C3(O)C(F)(F)F)cn1 (stereo not shown) [Example 34] on PDHE1α S293?
A) ≥ 50%

Q) Form field: inhibition at 1 µM recorded for COc1cc(-c2cnn(C(C)C(=O)NNc3ccc(S(C)(=O)=O)cc3F)c2)c2c(c1)C(O)(C(F)(F)F)c1ccccc1-2 (stereo not shown) [Example 9] with PDHE1α S293 (enter value)
A) ≥ 80%

Q) Record CC(C(=O)NNc1ccc(Cl)cc1)n1cc(-c2cc(F)cc3c2-c2ccccc2C3(O)C(F)(F)F)cn1 (stereo not shown) [Example 7] : what is its inhibition at 1 µM with PDHE1α S293?
A) ≥ 50%
